Cited source for all entries: ChEMBL document CHEMBL4371046

assay: Solubility of the compound in pH 7.4 solution by chromatography method; assay type: physicochemical
The following compounds are listed with their measured solubility values.
State just the number; it will be interpreted in µM.

Below are worked cases with known answers.
Form field: reported solubility of CNc1cc(C(N)=O)ccc1-n1nc(C(C)C)c2c(-n3cnc(-c4cnn(C)c4)c3)ccnc21
15

Would you kindly share the measured solubility for CC(C)c1nn(-c2ccc(C(N)=O)c(N[C@H]3CC[C@H](O)CC3)c2)c2nccc(-n3cnc(-c4cnn(C)c4)c3)c12 ?
3

Here is the next item to consider.
Reported solubility, compound CC(C)c1nn(-c2ccc(C(N)=O)cc2)c2nccc(-n3cnc(-c4cnn(C)c4)c3)c12 : ____
4

###

assay: AUC (0 to 6 hrs) in Balb/cA mouse at 50 mg/kg, po by LC-MS/MS analysis; type: ADME, organism-based; set-up: dose 50 mg/kg, time < 6 hr, route oral; details: in vivo
# maps each entry to its AUC(0-t) at 6 h
Output spec: scalar in µM·h, unitless text.

Sample answers from the record:
Give the measured AUC(0-t) at 6 h of CC(C)c1nn(-c2ccc(C(N)=O)cc2)c2nccc(-n3cnc(-c4cnn(C)c4)c3)c12 .
5

Record request: AUC(0-t) at 6 h value, item CCc1cc(C(N)=O)ccc1-n1nc(C(C)C)c2c(-n3cnc(-c4cnn(C)c4)c3)ccnc21
90.1

Give the measured AUC(0-t) at 6 h of CNc1cc(C(N)=O)ccc1-n1nc(C(C)C)c2c(-n3cnc(-c4cnn(C)c4)c3)ccnc21 .
2.69

---
Reported AUC(0-t) at 6 h, compound Cc1cc(C(N)=O)ccc1-n1nc(C(C)C)c2c(-n3cnc(-c4cnn(C)c4)c3)ccnc21 : ____
37.7

###

The following compounds each carry a recorded IC50 for Heat shock protein HSP 90-alpha (Homo sapiens, UniProt P07900).
Give the value in nM but do not write nM after it.

Request: IC50, test system Heat shock protein HSP 90-alpha (Homo sapiens, UniProt P07900), entry CC(C)c1nn(-c2ccc(C(N)=O)c(N[C@H]3CC[C@H](O)CC3)c2)c2cncc(-c3cnc4ccccc4c3)c12
72

Requested read-out IC50, target or system Heat shock protein HSP 90-alpha (Homo sapiens, UniProt P07900), entry CNc1cc(C(N)=O)ccc1-n1nc(C(C)C)c2c(-n3cnc(-c4cnn(C)c4)c3)ccnc21
58

Lookup: IC50 / Heat shock protein HSP 90-alpha (Homo sapiens, UniProt P07900) / COc1ccc(-c2cn(-c3ccnc4c3c(C(C)C)nn4-c3ccc(C(N)=O)c(N[C@H]4CC[C@H](O)CC4)c3)cn2)cc1
96

Give recorded IC50 with Heat shock protein HSP 90-alpha (Homo sapiens, UniProt P07900) for the following compound: CC(C)c1nn(-c2ccc(C(N)=O)c(N[C@H]3CC[C@H](O)CC3)c2)c2cccc(-c3cnc4ccccc4c3)c12
67

What IC50 appears in the records for this compound with Heat shock protein HSP 90-alpha (Homo sapiens, UniProt P07900)? CCc1cc(C(N)=O)ccc1-n1nc(C(C)C)c2c(-n3cnc(-c4cnn(C)c4)c3)ccnc21
69

IC50 of CC(C)c1nn(-c2ccc(C(N)=O)c(N[C@H]3CC[C@H](O)CC3)c2)c2nccc(-c3cnc4c(c3)CCCC4)c12 on Heat shock protein HSP 90-alpha (Homo sapiens, UniProt P07900)?
789

Write down the reported IC50 of CC(C)c1nn(-c2ccc(C(N)=O)c(N[C@H]3CC[C@H](O)CC3)c2)c2nccc(-n3cnc(-c4ccsc4)c3)c12 , test system: Heat shock protein HSP 90-alpha (Homo sapiens, UniProt P07900).
87

Form field: IC50 recorded for CC(C)c1nn(-c2ccc(C(N)=O)c(N[C@H]3CC[C@H](O)CC3)c2)c2nccc(-n3cnc(-c4ccoc4)c3)c12 with Heat shock protein HSP 90-alpha (Homo sapiens, UniProt P07900) (enter value)
73

Reported IC50 for Heat shock protein HSP 90-alpha (Homo sapiens, UniProt P07900), given CC(C)c1nn(-c2ccc(C(N)=O)c(N[C@H]3CC[C@H](O)CC3)c2)c2nccc(-n3ccnc3)c12 ?
1620

For Heat shock protein HSP 90-alpha (Homo sapiens, UniProt P07900), provide IC50 of CC(C)c1nn(-c2ccc(C(N)=O)c(N[C@H]3CC[C@H](O)CC3)c2)c2nccc(-n3cnc(-n4ccnc4)c3)c12 please.
52

We next turn to a different compound, shown below.
Look up IC50 with Heat shock protein HSP 90-alpha (Homo sapiens, UniProt P07900) for this compound: CC(C)c1nn(-c2ccc(C(N)=O)cc2)c2nccc(-n3cnc(-c4cnn(C)c4)c3)c12
204

###

test: 1-octanol/aqueous buffer partition coefficient, log D of the compound at pH 7.4 by HPLC method; assay type: physicochemical
Some compounds, each annotated with its measured logD.
Answer field: number only, no words.

Examples with answers:
Recorded logD for CC(C)c1nn(-c2ccc(C(N)=O)c(N[C@H]3CC[C@H](O)CC3)c2)c2cccc(-c3cnc4ccccc4c3)c12 , please?
3.9

Need logD of CC(C)c1nn(-c2ccc(C(N)=O)c(N[C@H]3CC[C@H](O)CC3)c2)c2cncc(-c3cnc4ccccc4c3)c12 , thanks.
4

What does the data say about its logD? Entry: CC(C)c1nn(-c2ccc(C(N)=O)cc2)c2nccc(-n3cnc(-c4cnn(C)c4)c3)c12
3

Further cases:
State the recorded logD for this entry: CNc1cc(-n2nc(C(C)C)c3c(-n4cnc(-c5cnn(C)c5)c4)ccnc32)ccc1C(N)=O
3

Give the measured logD of Cc1cc(C(N)=O)ccc1-n1nc(C(C)C)c2c(-n3cnc(-c4cnn(C)c4)c3)ccnc21 .
2.1

Tell me the measured logD of CC(C)c1nn(-c2ccc(C(N)=O)c(N[C@H]3CC[C@H](O)CC3)c2)c2nccc(-c3cnc4ccccc4c3)c12 , please.
3.4

Find the recorded logD belonging to CCc1cc(C(N)=O)ccc1-n1nc(C(C)C)c2c(-n3cnc(-c4cnn(C)c4)c3)ccnc21 [TAS-116] and report it.
2.4

Name the reported logD value associated with the compound CNc1cc(C(N)=O)ccc1-n1nc(C(C)C)c2c(-n3cnc(-c4cnn(C)c4)c3)ccnc21
1.9

# logD lookup, item CC(C)c1nn(-c2ccc(C(N)=O)c(N[C@H]3CC[C@H](O)CC3)c2)c2nccc(-n3cnc(-c4cnn(C)c4)c3)c12
3.6

Could you share which logD value was measured for CC(C)c1nn(-c2ccc(C(N)=O)c(N[C@H]3CC[C@H](O)CC3)c2)c2ccnc(-c3cnc4ccccc4c3)c12 ?
3.3

###

Measured inhibition at 10 µM accompanies every entry in the list below.
target: UniProtKB Q12809; experiment: Displacement of Tracer Red from human ERG at 10 uM by fluorescence assay relative to control; conditions: probe Tracer Red
Sequence (Q12809 whole entry): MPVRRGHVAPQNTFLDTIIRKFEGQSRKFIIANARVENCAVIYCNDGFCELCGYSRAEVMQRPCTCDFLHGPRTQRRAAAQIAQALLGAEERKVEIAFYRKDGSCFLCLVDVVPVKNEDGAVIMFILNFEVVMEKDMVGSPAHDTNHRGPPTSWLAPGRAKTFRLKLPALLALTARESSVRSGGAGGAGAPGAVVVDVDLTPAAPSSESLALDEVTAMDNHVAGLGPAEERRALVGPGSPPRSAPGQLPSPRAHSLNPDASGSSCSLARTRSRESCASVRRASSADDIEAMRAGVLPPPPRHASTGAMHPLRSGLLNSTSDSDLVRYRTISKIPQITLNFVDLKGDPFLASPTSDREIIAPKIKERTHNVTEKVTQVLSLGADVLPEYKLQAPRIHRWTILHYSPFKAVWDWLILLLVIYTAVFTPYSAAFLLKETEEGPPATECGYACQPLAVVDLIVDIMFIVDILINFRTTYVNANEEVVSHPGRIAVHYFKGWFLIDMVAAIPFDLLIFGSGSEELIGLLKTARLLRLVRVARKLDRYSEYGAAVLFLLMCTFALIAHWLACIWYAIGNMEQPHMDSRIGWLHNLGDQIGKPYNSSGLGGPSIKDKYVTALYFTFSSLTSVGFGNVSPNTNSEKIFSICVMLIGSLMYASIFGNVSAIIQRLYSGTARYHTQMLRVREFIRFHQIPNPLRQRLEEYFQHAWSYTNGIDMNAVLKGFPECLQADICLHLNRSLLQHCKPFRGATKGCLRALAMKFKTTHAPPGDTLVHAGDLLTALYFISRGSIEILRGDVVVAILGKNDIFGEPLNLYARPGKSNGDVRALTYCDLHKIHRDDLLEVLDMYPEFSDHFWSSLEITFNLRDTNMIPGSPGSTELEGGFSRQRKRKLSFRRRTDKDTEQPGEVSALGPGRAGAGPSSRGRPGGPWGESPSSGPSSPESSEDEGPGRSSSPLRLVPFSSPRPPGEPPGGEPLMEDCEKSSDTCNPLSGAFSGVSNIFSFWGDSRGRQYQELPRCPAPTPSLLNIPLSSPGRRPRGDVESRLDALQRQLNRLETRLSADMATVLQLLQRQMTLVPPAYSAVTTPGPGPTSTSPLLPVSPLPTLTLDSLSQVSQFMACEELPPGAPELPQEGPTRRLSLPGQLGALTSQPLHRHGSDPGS
Kindly answer with a numeric value in %, unit omitted.

Previously resolved entries follow.
Lab request: please report inhibition at 10 µM under test system UniProtKB Q12809 for CC(C)c1nn(-c2ccc(C(N)=O)c(N[C@H]3CC[C@H](O)CC3)c2)c2cncc(-c3cnc4ccccc4c3)c12
57

Provide the documented inhibition at 10 µM with UniProtKB Q12809 as the system for CC(C)c1nn(-c2ccc(C(N)=O)c(N[C@H]3CC[C@H](O)CC3)c2)c2ccnc(-c3cnc4ccccc4c3)c12
35

// map CC(C)c1nn(-c2ccc(C(N)=O)c(N[C@H]3CC[C@H](O)CC3)c2)c2nccc(-c3cnc4ccccc4c3)c12 to recorded inhibition at 10 µM (system: UniProtKB Q12809)
37

Others:
Entry CC(C)c1nn(-c2ccc(C(N)=O)c(N[C@H]3CC[C@H](O)CC3)c2)c2cccc(-c3cnc4ccccc4c3)c12 , system UniProtKB Q12809: what inhibition at 10 µM was measured?
60

###

test: Solubility of the compound in pH 7.4 solution by chromatography method; format: physicochemical
measure_name: solubility

Observe how each entry below is paired with its result.
Given the molecule CCc1cc(C(N)=O)ccc1-n1nc(C(C)C)c2c(-n3cnc(-c4cnn(C)c4)c3)ccnc21 , what is its reported solubility?
> 170 µM

Requested field: solubility. Item: Cc1cc(C(N)=O)ccc1-n1nc(C(C)C)c2c(-n3cnc(-c4cnn(C)c4)c3)ccnc21
> 170 µM

Could you now consider this next molecule?
Report solubility for CNc1cc(-n2nc(C(C)C)c3c(-n4cnc(-c5cnn(C)c5)c4)ccnc32)ccc1C(N)=O please.
< 2 µM

###

biological target: Heat shock protein HSP 90-alpha (Homo sapiens, UniProt P07900)
Each record here notes measured pIC50.
Note on units: pIC50 is unitless, being -log10 of a concentration expressed in mol/L.

So what does the record say about pIC50 for CC(C)c1nn(-c2ccc(C(N)=O)c(N[C@H]3CC[C@H](O)CC3)c2)c2nccc(-n3cnc(-c4cnn(C)c4)c3)c12 ?
7.27

Quick one: pIC50 of CC(C)c1nn(-c2ccc(C(N)=O)c(N[C@H]3CC[C@H](O)CC3)c2)c2nccc(-n3cnc(-c4ccc(Oc5ccccc5)cc4)c3)c12 ?
6.19

For CC(C)c1nn(-c2ccc(C(N)=O)c(N[C@H]3CC[C@H](O)CC3)c2)c2nccc(-n3cnc(-c4ccccc4)c3)c12 , what is its reported pIC50?
6.88

Further cases:
For the compound shown here, CC(C)c1nn(-c2ccc(C(N)=O)c(N[C@H]3CC[C@H](O)CC3)c2)c2nccc(-n3cnc(-c4cccnc4)c3)c12 , give the reported pIC50.
7.32

Returns the measured pIC50 for the input compound. Input: CC(C)c1nn(-c2ccc(C(N)=O)c(N[C@H]3CC[C@H](O)CC3)c2)c2nccc(-n3cnc(-c4cncnc4)c3)c12
7.04

Any idea what pIC50 was measured for CC(C)c1nn(-c2ccc(C(N)=O)c(N[C@H]3CC[C@H](O)CC3)c2)c2nccc(-n3cnc(-c4ccncc4)c3)c12 ?
7.26

I'd like to know its pIC50. The compound in question is CC(C)c1nn(-c2ccc(C(N)=O)c(N[C@H]3CC[C@H](O)CC3)c2)c2nccc(-c3cnc4c(ccn4C)c3)c12
6.12

Give the measured pIC50 of Cc1cn(-c2ccc(C(N)=O)c(N[C@H]3CC[C@H](O)CC3)c2)c2cccc(-c3cnc4ccccc4c3)c12 .
6.23

Query: pIC50; subject: CNc1cc(-n2nc(C(C)C)c3c(-n4cnc(-c5cnn(C)c5)c4)ccnc32)ccc1C(N)=O
6.88

Fill in: pIC50 of CC(C)c1nn(-c2ccc(C(N)=O)c(N[C@H]3CC[C@H](O)CC3)c2)c2ccnc(-c3cnc4ccccc4c3)c12 is ___
6.33

Would you kindly share the measured pIC50 for NC(=O)c1ccc(-n2ccc3c(-c4cnc5ccccc5c4)cccc32)cc1N[C@H]1CC[C@H](O)CC1 ?
5.02
